Numbers sourced from patent US7026334B1.

Molecular target: human TPO receptor (hTPOR) (Homo sapiens)
Sequence (P40238 26-635): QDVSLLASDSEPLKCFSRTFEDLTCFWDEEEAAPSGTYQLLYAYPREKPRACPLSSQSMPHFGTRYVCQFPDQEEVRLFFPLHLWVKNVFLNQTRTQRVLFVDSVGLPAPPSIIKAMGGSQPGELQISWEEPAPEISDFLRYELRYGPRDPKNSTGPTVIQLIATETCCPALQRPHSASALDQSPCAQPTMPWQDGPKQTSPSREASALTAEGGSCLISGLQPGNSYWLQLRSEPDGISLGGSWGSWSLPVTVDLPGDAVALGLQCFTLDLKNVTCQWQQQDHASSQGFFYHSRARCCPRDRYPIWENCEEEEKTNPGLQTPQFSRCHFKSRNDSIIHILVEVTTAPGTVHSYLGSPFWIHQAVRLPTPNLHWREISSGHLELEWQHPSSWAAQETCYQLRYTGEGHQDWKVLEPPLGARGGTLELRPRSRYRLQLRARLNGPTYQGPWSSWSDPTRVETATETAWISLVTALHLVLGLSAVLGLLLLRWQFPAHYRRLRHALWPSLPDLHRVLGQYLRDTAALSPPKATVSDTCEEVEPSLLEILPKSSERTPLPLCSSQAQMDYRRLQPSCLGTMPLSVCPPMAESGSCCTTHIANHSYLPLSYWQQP
Assay: Proliferation of TPO dependent BaF/hTPOR cells (thrombopoietic activity, WST-1)
Details: 20 hours + 4 hours WST-1, absorbance at 450 nm, ED50 = half concentration of the concentration showing the maximum thrombopoietic activity
Parameter: EC50 (nM)
Respond with the bare value in nM.

Worked examples follow.
I'd like to know its EC50. The compound in question is O=C1NC(=S)S/C1=C\c1ccc(C(=O)Nc2nc(-c3ccc(C(F)(F)F)cc3)cs2)cc1
69

Then this compound: O=C1NC(=O)/C(=C/c2ccc(C(=O)Nc3nc(-c4cccs4)cs3)cc2)S1
77

Then this compound: O=C1NC(=S)S/C1=C\c1ccc(C(=O)Nc2nc(-c3ccccc3F)cs2)cc1
50

Then this compound: O=C1NC(=S)S/C1=C\c1ccc(C(=O)Nc2nc(-c3cccc(C(F)(F)F)c3)cs2)cc1
23

Then this compound: O=C1NC(=S)S/C1=C\c1ccc(C(=O)Nc2nc(-c3cccc(Br)c3)cs2)cc1
35

***
I'd like to know its EC50. The compound in question is O=C1NC(=S)S/C1=C\c1ccc(C(=O)Nc2nc(-c3cccs3)cs2)cc1
49

Then this compound: O=C1NC(=O)C(=Cc2ccc(C(=O)Nc3nc(-c4ccccc4)cs3)cc2)S1
71

Then this compound: O=C1NC(=S)S/C1=C\c1ccc(C(=O)Nc2nc(-c3ccc(F)cc3F)cs2)cc1
20

====

Target: human TPO receptor (hTPOR) (Homo sapiens)
Construct: expressed in transfected cells; host or cells: BaF-BO3 (murine IL-3 dependent pro-B cell line), giving BaF/hTPOR
Assay: Proliferation of TPO dependent BaF/hTPOR cells (thrombopoietic activity, WST-1)
Format: cell-based
Details: 20 hours + 4 hours WST-1, absorbance at 450 nm, ED50 = half concentration of the concentration showing the maximum thrombopoietic activity
compounds and their reported EC50
Respond with the bare value in nM.

I'd like to know its EC50. The compound in question is O=C1NC(=S)SC1=Cc1ccc(C(=O)Nc2nc(-c3ccc(Cl)cc3)cs2)cc1 [Compound A-5]
22

Then this compound: O=C1NC(=S)S/C1=C\c1ccc(C(=O)Nc2nc(-c3ccc(I)cc3)cs2)cc1 [Compound A-73]
70

Could you now consider this next compound?
I'd like to know its EC50. The compound in question is CCOC(=O)c1sc(NC(=O)c2ccc(/C=C3\SC(=S)NC3=O)cc2)nc1-c1ccccc1 [Compound A-32]
77
